Exercise: for every item that follows, state its recorded apparent KD of MS2 coat protein.
System: MS2 coat protein
protocolSummary: apparent KD of MS2 coat protein, switch OFF state (with FMN for OFF switches, without FMN for ON switches); designed switch direction (-1 OFF switch, 1 ON switch): -1; higher = weaker reporter binding
setupConditions: FMN input: 0 or 200 uM; Eterna round: R93 (includes R88 designs)

Exam item: Give the reported apparent KD of MS2 coat protein for AUAGUACAUGAGGAUCACCCAUGUCAGGAUAUCGGAUAUGACAUGAAAAAAAUGUUAAUGAGAAGGGACUAUAA [EX1 Malc#18 Mod 1 - Jieux - Exclusion 1] (system: MS2 coat protein).
Marked response: 63.6 nM

Exam item: Give the reported apparent KD of MS2 coat protein for AGUUGGCGAGGAUAUACAUGAGGAUCACCCAUGUGAGAGAAAAAAGUGAGAAAGAAAAGUAGAAGGCGCUGACA [Norbert Elias] (system: MS2 coat protein).
Marked response: 202 nM

Exam item: Give the reported apparent KD of MS2 coat protein for CAGUACUGAGGAUAUACAUGAGGAUCACCCAUGUAUCCAAGCUAGGAAACUAGCAAAAGUAGAAGGCAGUACUG [Ex3: 820] (system: MS2 coat protein).
Marked response: 65.5 nM

Exam item: Give the reported apparent KD of MS2 coat protein for AAGAAGUGAGGAUAUCGAAGACUGUCGAAAAGACAGUCGAACGAGAAGGCACAUGAGGAUCACCCAUGUGAGAG [Mat - Exaclusion 4 - Eli mod - D66] (system: MS2 coat protein).
Marked response: 46.2 nM

Exam item: Give the reported apparent KD of MS2 coat protein for AACAGUACAGGAUAUACAUGAGGAUCACCCAUGUGAGAAUUAAGUGGAAAACCACAAAGUAGAAGGGUACUGGA [Mat - Exclusion 3 - JL mod - D3] (system: MS2 coat protein).
Marked response: 234 nM

Exam item: Give the reported apparent KD of MS2 coat protein for AAAAAACAUGAGGAUCACCCAUGUGAGGAUAUCGGAAACAAAAAAAACAAAAACAAAACGAGAAGGCACAAAAA [Amethyst 32] (system: MS2 coat protein).
Marked response: 26.6 nM

Exam item: Give the reported apparent KD of MS2 coat protein for AAGAACUCAGGAUAUACAAAAUAAAAGAAAAGAAAGAAAGAACAUGAGGAUCACCCAUGUAGAAGGGAGAAGAA [Sobekkare Sobekneferu] (system: MS2 coat protein).
Marked response: 32.4 nM

Exam item: Give the reported apparent KD of MS2 coat protein for AAAAAGUGAGGAUAUGUCAAAAGUCACAAAAGUGACAAAAGACAGAAGGCACAUGAGGAUCACCCAUGUGGAAA [Mod of Eli - Late G + early G segment 2] (system: MS2 coat protein).
Marked response: 28.6 nM

Exam item: Give the reported apparent KD of MS2 coat protein for AAGAAGACAGGAUAUACAUGAGGAUCACCCAUGUAAAAGAAAGAAAGGGAAAAGAAAAGUAGAAGGGUCAAGAA [Khepermaatre-setpenptah Ramesses X] (system: MS2 coat protein).
Marked response: 51.4 nM

Exam item: Give the reported apparent KD of MS2 coat protein for AAAAAACAUGAGGAUCACCCAUGUUAGGAUAUGCUAUGGAAAAUAAAAAAUAAACAUAGCAGAAGGAACAAAAA [Mat - Exclusion 1 - Eli mod - D30] (system: MS2 coat protein).
Marked response: 32.6 nM

Exam item: Give the reported apparent KD of MS2 coat protein for UUUACGUGAGGAUAUGCGAAUAGAACGUAAGUCAUACAGACGCAGAAGGCACAUGAGGAUCACCCAUGUGAACC [JR_Exc004_Sub312] (system: MS2 coat protein).
Marked response: 49.8 nM

Exam item: Give the reported apparent KD of MS2 coat protein for AAGAACCUAGGAUAUACUUGGGUAACUAAUAAACUGAUAUAACAUGAGGAUCACCCAUGUAGAAGGAGGAGAAA [JR_Exc002_Sub204] (system: MS2 coat protein).
Marked response: 62.4 nM
